- assay protocol: Individual serum elimination rate and half-life (linear regression per employee)
- measurement setup: individual estimate, subject 17, 5 samples
- Description: Serum PFAS concentrations were log-transformed. Time was calculated as the elapsed days between supply of clean bottled water and […] blood sampling. We assumed one compartment, first-order elimination kinetics. […] Method 2: For estimation of individual k, linear regression was used to derive the slope ( β ) of the logarithm of serum concentrations vs. time for each employee. […] If β was positive (i.e., PFAS concentrations tended to increase over the five samplings), the half-life was not calculated.
Would you mind telling me the reported Elimination rate of each entry?
Numbers only, in yearly.

Example entries and their recorded answers appear below.
O=C(O)C(F)(F)C(F)(F)C(F)(F)C(F)(F)C(F)(F)C(F)(F)C(F)(F)F [PFOA, perfluorooctanoic acid]    0.6
O=C(O)C(F)(F)C(F)(F)C(F)(F)C(F)(F)C(F)(F)C(F)(F)F [PFHpA, perfluoroheptanoic acid]    5.2
O=S(=O)(O)C(F)(F)C(F)(F)C(F)(F)C(F)(F)C(F)(F)C(F)(F)C(F)(F)C(F)(F)F [L-PFOS, linear perfluorooctane sulfonic acid]    0.3
O=S(=O)(O)C(F)(F)C(F)(F)C(F)(F)C(F)(F)C(F)(F)C(F)(F)C(F)(F)F [PFHpS, perfluoroheptane sulfonic acid]    1.7
O=C(O)C(F)(F)C(F)(F)C(F)(F)C(F)(F)C(F)(F)F [PFHxA, perfluorohexanoic acid]    2.5

We next turn to a different compound, shown below.
Quick one: Elimination rate of O=S(=O)(O)C(F)(F)C(F)(F)C(F)(F)C(F)(F)C(F)(F)C(F)(F)F [PFHxS, perfluorohexane sulfonic acid] ?
0.4

###

Would you mind telling me the reported Specific gravity adjusted urinary level, Max of each entry?
- assay protocol: PFAS levels in urine samples of airport employees, specific-gravity adjusted (LC/MS/MS)
- Assay type: in vivo, human
- measurement setup: 2nd sampling (October 2018), count 17

Example entries and their recorded answers appear below.
O=S(=O)(O)C(F)(F)C(F)(F)C(F)(F)C(F)(F)C(F)(F)C(F)(F)F    0.28 ng/mL
O=S(=O)(O)C(F)(F)C(F)(F)C(F)(F)C(F)(F)C(F)(F)F    0.11 ng/mL

Here are 3 compounds. What values of Specific gravity adjusted urinary level, Max were reported for them?
1. O=S(=O)(O)C(F)(F)C(F)(F)C(F)(F)C(F)(F)C(F)(F)C(F)(F)C(F)(F)C(F)(F)F
2. O=C(O)C(F)(F)C(F)(F)C(F)(F)C(F)(F)C(F)(F)C(F)(F)C(F)(F)F
3. O=C(O)C(F)(F)C(F)(F)C(F)(F)C(F)(F)C(F)(F)C(F)(F)F

1: 0.08 ng/mL; 2: 0.07 ng/mL; 3: 0.05 ng/mL

###

Would you mind telling me the reported HL (half-life) of each entry?
- assay protocol: Individual serum elimination rate and half-life (linear regression per employee);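 on HL (half-life): half-life in years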
- measurement setup: individual estimate, subject 15, 5 samples
One number for each entry, in year.

Here are 2 compounds. What values of HL (half-life) were reported for them?
1. O=S(=O)(O)C(F)(F)C(F)(F)C(F)(F)C(F)(F)F
2. O=S(=O)(O)C(F)(F)C(F)(F)C(F)(F)C(F)(F)C(F)(F)C(F)(F)C(F)(F)F

1. 0.1
2. 0.4

###

- assay protocol: PFAS levels in serum samples of airport employees (LC/MS/MS)
- measurement setup: 5th sampling (January 2019), count 16
Would you mind telling me the reported Serum PFAS level, Median of each entry?
Numbers only.

Example entries and their recorded answers appear below.
O=C(O)C(F)(F)C(F)(F)C(F)(F)C(F)(F)C(F)(F)C(F)(F)C(F)(F)F [PFOA, perfluorooctanoic acid]    10
O=C(O)C(F)(F)C(F)(F)C(F)(F)C(F)(F)C(F)(F)F [PFHxA, perfluorohexanoic acid]    0.33

We next turn to a different molecule, shown below.
Quick one: Serum PFAS level, Median of O=S(=O)(O)C(F)(F)C(F)(F)C(F)(F)C(F)(F)C(F)(F)F [PFPeS, perfluoropentane sulfonic acid] ?
6.2

###

- assay protocol: PFAS levels in urine samples of airport employees, specific-gravity adjusted (LC/MS/MS)
- Assay type: in vivo, human
- measurement setup: 2nd sampling (October 2018), count 17
Would you mind telling me the reported Specific gravity adjusted urinary level, Min of each entry?
Numbers only, in ng/mL.

Example entries and their recorded answers appear below.
O=C(O)C(F)(F)C(F)(F)C(F)(F)C(F)(F)C(F)(F)C(F)(F)C(F)(F)F [PFOA, perfluorooctanoic acid]    0.01
O=S(=O)(O)C(F)(F)C(F)(F)C(F)(F)C(F)(F)C(F)(F)F [PFPeS, perfluoropentane sulfonic acid]    0.04

Quick one: Specific gravity adjusted urinary level, Min of O=S(=O)(O)C(F)(F)C(F)(F)C(F)(F)C(F)(F)C(F)(F)C(F)(F)F [PFHxS, perfluorohexane sulfonic acid] ?
0.03

###

- assay protocol: PFAS levels in serum samples of airport employees (LC/MS/MS)
- measurement setup: employees participated in first blood sampling only, N=9, 11-14 d after end of exposure
Marks after values point to notes of the source that are not given here.
endpoint name: PFAS in first serum sample, median (range)

O=C(O)C(F)(F)C(F)(F)C(F)(F)C(F)(F)C(F)(F)F [PFHxA, perfluorohexanoic acid]    0.38 (0.23–1.1) ng/mL
O=C(O)C(F)(F)C(F)(F)C(F)(F)C(F)(F)C(F)(F)C(F)(F)F [PFHpA, perfluoroheptanoic acid]    0.17 (0.07–1.3) ng/mL
O=S(=O)(O)C(F)(C(F)(F)F)C(F)(F)C(F)(F)C(F)(F)C(F)(F)C(F)(F)C(F)(F)F (stereo not drawn) [1m-PFOS, perfluoro-1-methylheptanesulfonate]    0.52 (0.25–2.7) ng/mL

Here are 4 compounds. What values of PFAS in first serum sample, median (range) were reported for them?
1. O=S(=O)(O)C(F)(F)C(F)(F)C(F)(F)C(F)(F)F [PFBS, perfluorobutane sulfonic acid]
2. O=S(=O)(O)C(F)(F)C(F)(F)C(F)(F)C(F)(F)C(F)(F)C(F)(F)F [PFHxS, perfluorohexane sulfonic acid]
3. O=S(=O)(O)C(F)(F)C(F)(F)C(F)(F)C(F)(F)C(F)(F)C(F)(F)C(F)(F)F [PFHpS, perfluoroheptane sulfonic acid]
4. O=C(O)C(F)(F)C(F)(F)C(F)(F)C(F)(F)C(F)(F)C(F)(F)C(F)(F)F [PFOA, perfluorooctanoic acid]

1: 0.10 ( <LOD –1.0)^d ng/mL; 2: 60 (17–85) ng/mL; 3: 0.97 (0.28–1.9) ng/mL; 4: 6.5 (2.9–11) ng/mL

Here are 2 compounds. What values of PFAS in first serum sample, median (range) were reported for them?
1. O=S(=O)(O)C(F)(F)C(F)(F)C(F)(F)C(F)(F)C(F)(F)F [PFPeS, perfluoropentane sulfonic acid]
2. O=S(=O)(O)C(F)(F)C(F)(F)C(F)(F)C(F)(F)C(F)(F)C(F)(F)C(F)(F)C(F)(F)F [L-PFOS, linear perfluorooctane sulfonic acid]

1: 3.5 (1.4–11) ng/mL; 2: 6.5 (5.4–13) ng/mL

###

- assay protocol: PFAS levels in serum samples of airport employees (LC/MS/MS)
- measurement setup: 1st sampling (September 2018), count 17
Would you mind telling me the reported Serum PFAS level, 75 percentile of each entry?
One number for each entry.

Example entries and their recorded answers appear below.
O=C(O)C(F)(F)C(F)(F)C(F)(F)C(F)(F)C(F)(F)C(F)(F)F    1.1
O=C(O)C(F)(F)C(F)(F)C(F)(F)C(F)(F)C(F)(F)C(F)(F)C(F)(F)F    16
O=S(=O)(O)C(F)(F)C(F)(F)C(F)(F)C(F)(F)C(F)(F)F    13
O=S(=O)(O)C(F)(F)C(F)(F)C(F)(F)C(F)(F)F    0.68
O=C(O)C(F)(F)C(F)(F)C(F)(F)C(F)(F)C(F)(F)F    0.48

Here are 4 compounds. What values of Serum PFAS level, 75 percentile were reported for them?
1. O=S(=O)(O)C(F)(C(F)(F)F)C(F)(F)C(F)(F)C(F)(F)C(F)(F)C(F)(F)C(F)(F)F (stereo not drawn) [1m-PFOS, perfluoro-1-methylheptanesulfonate]
2. O=S(=O)(O)C(F)(F)C(F)(F)C(F)(F)C(F)(F)C(F)(F)C(F)(F)C(F)(F)C(F)(F)F
3. O=S(=O)(O)C(F)(F)C(F)(F)C(F)(F)C(F)(F)C(F)(F)C(F)(F)C(F)(F)F
4. O=S(=O)(O)C(F)(F)C(F)(F)C(F)(F)C(F)(F)C(F)(F)C(F)(F)F

[1.8, 15, 2.5, 155]

###

- assay protocol: PFAS levels in serum samples of airport employees (LC/MS/MS)
- measurement setup: males (N=19)
Would you mind telling me the reported Initial serum PFAS level, Max of each entry?
Answers are plain numbers, in ng/mL.

Example entries and their recorded answers appear below.
O=S(=O)(O)C(F)(C(F)(F)F)C(F)(F)C(F)(F)C(F)(F)C(F)(F)C(F)(F)C(F)(F)F (stereo not drawn) [1m-PFOS, perfluoro-1-methylheptanesulfonate]    4.1
O=S(=O)(O)C(F)(F)C(F)(F)C(F)(F)C(F)(F)C(F)(F)C(F)(F)C(F)(F)F    6.2

We next turn to a different compound, shown below.
Quick one: Initial serum PFAS level, Max of `O=S(=O)(O)C(F)(F)C(F)(F)C(F)(F)C(F)(F)F` ?
1.1

Values from paper PMC7351026
